Data origin: patent US9724351B2

assay: Cytotoxicity Determination; type: cell-based; settings: human, HEp-2 cells, without addition of virus, CCK-8 readout, bins (Table 4: greater than 100 μM; Table 5: equal to or less than 100 μM and greater than 10 μM), read-out: 50% cytotoxicity concentration (CC50)
RESULT_TYPE: CC50 at 5 days

Qu. Please give the measured CC50 at 5 days for this compound: C/C=C\c1cc(C(=O)CNC(=O)c2ccc(OC)c(OC)c2)nc(-c2csc3c(F)cccc23)c1
Ans. > 100 µM

Qu. Ok, now COCC/C(=N\NC(=O)CNC(=O)c1ccc(OCCO)c(OC)c1)c1csc2c(F)cccc12 [Compound 603A]
Ans. > 100 µM

Qu. Let us now turn to COc1ccc(C(=O)NCC(=O)c2ccc(OC)c(-c3c(C)sc4cccnc34)n2)cc1OC
Ans. > 100 µM

Qu. Would you kindly repeat that for COc1ccc(C(=O)NCC(=O)N/N=C(\C)c2csc3ccccc23)c(OC)c1OC ?
Ans. > 100 µM

Qu. Another compound to look at: COc1ccc(C(=O)NCc2nnc(-c3csc4ccccc34)o2)cc1OC
Ans. > 100 µM

Qu. Another: COc1ccc(C(=O)NCC(=O)N/N=C/c2csc(-c3ccccc3)c2)cc1OC
Ans. 10 to 100 µM

Qu. Also, COc1cc(C(=O)NCC(=O)c2ccc(OC)c(-c3ccc(F)c(Cl)c3)n2)ccc1OCC(C)N (centres unmarked) please.
Ans. 10 to 100 µM

Qu. And what about the compound COc1cc(C(=O)CNC(=O)c2ccc(OC)c(OC)c2)nc(-c2ccc3[nH]nnc3c2)c1 ?
Ans. > 100 µM

---

Assay: Cytotoxicity Determination
Format: cell-based
Settings: human, HEp-2 cells, without addition of virus, CCK-8 readout, bins (Table 4: greater than 100 μM; Table 5: equal to or less than 100 μM and greater than 10 μM), read-out: 50% cytotoxicity concentration (CC50)
Method: In order to determine the compound cytotoxicity, in parallel, each of the compounds is applied to duplicate wells in a 384-well cell plate at serial final concentrations starting from 100 μM using ½ stepwise dilutions for 7 points without addition of virus. Incubate the cells at 37° C., 5% CO2 for 5 days. Add 6 μl CCK-8 into each well and incubate in a CO2 incubator at 37° C. for 3-4 hours. […]
RESULT_TYPE: CC50 at 5 days

Qu. Need CC50 at 5 days, item CCCC/C(=N\NC(=O)CNC(=O)c1cc(OC)c(OC)cc1Cl)c1csc2ccccc12 [Compound 247]
Ans. > 100 µM

Qu. Another molecule: COc1ccc(C(=O)NC(C)(C)C(=O)c2cccc(-c3csc4c(F)cccc34)n2)cc1OC [Compound 1340]
Ans. > 100 µM

Qu. Now give it for COc1cc(C(=O)NCC(=O)c2cccc(-c3csc4c(F)cccc34)n2)ccc1OC1CCNCC1 [Compound 1231] too.
Ans. 10 to 100 µM

Qu. // next record CCN(CC)c1cc(C(=O)NCC(=O)N/N=C(\C)c2csc3ccccc23)ccc1OC [Compound 504]
Ans. 10 to 100 µM

Qu. Quick one: COc1cc(C(=O)NCC(=O)N/N=C(\C)c2csc3ccccc23)ccn1 [Compound 473]
Ans. > 100 µM

Qu. Item: COc1ccc(C(=O)NCC(=O)c2ccc(OC)c(-c3ccccc3C#N)n2)cc1OC [Compound 1516]
Ans. 10 to 100 µM

Qu. Also check COCCc1ccc(C(=O)NCC(=O)c2ccc(OC)c(-c3ccc(F)c(Cl)c3)n2)cc1OC [Compound 1331]
Ans. 10 to 100 µM

Qu. What would you report for CCOc1ccc(C(=O)NCC(=O)N/N=C(/CCOC)c2csc3c(F)cccc23)cc1OC [Compound 463B] ?
Ans. > 100 µM

Qu. What do we get for COc1ccc(C(=O)NCC(=O)N/N=C(\C)c2ccnc3ccccc23)cc1OC [Compound 449] ?
Ans. > 100 µM

Qu. Same read-out for COc1ccc(C(=O)NCC(=O)c2cccc(-n3ncc4c(F)cccc43)n2)cc1OC [Compound 2601] ?
Ans. > 100 µM

Qu. Please give the result for CCCCC/C(=N\NC(=O)CNC(=O)c1ccc(OC)c(OC)c1)c1csc2ccccc12 [Compound 448A] too.
Ans. 10 to 100 µM

Qu. Thanks! And COc1ccc(C(=O)NCC(=O)c2cc(C=C(C)C)cc(-c3csc4c(F)cccc34)n2)cc1OC [Compound 1238] ?
Ans. > 100 µM

Qu. Here is the next molecule: COc1cc(C(=O)NCC(=O)c2ccc(OC)c(-c3csc4ccc(C#N)cc34)n2)ccc1OCCO [Compound 1620]
Ans. 10 to 100 µM

Qu. Could you do the same for COc1ccc(C(=O)NCC(=O)N/N=C(\C#N)c2ccccc2)cc1OC [Compound 454] , please?
Ans. > 100 µM

Qu. Then COc1ccc(C(=O)NC(C)CC(=O)c2ccc(OC)c(-c3csc4c(F)cccc34)n2)cc1OC (centres unmarked) [Compound 1801] ?
Ans. > 100 µM

Qu. Same thing, different molecule: COc1ccc(C(=O)NCC(=O)N/N=C2\CCc3cc(OC)c(OC)cc32)cc1OC [Compound 421]
Ans. > 100 µM

Qu. Follow-up item: COc1ccc(C(=O)NCC(=O)c2ccc(OC)c(-c3ccc(Cl)cc3)n2)cc1OC [Compound 1525]
Ans. > 100 µM

Qu. Queued: COc1cc(C(=O)NCC(=O)c2ccc(OC)c(-c3c(C)[nH]c4c(F)cccc34)n2)ccc1OCCO [Compound 4002]
Ans. 10 to 100 µM

Qu. Quick one: COc1ccc(C(=O)NCC(=O)c2ccnc(-c3csc4c(F)cccc34)c2O)cc1OC [Compound 2102]
Ans. 10 to 100 µM

Qu. # iterate: COc1ccc(C(=O)NCC(=O)c2ccc3cccnc3c2)cc1OC [Compound 1700]
Ans. > 100 µM

Qu. Continue with COC(=O)c1cc(C(=O)CNC(=O)c2ccc(OCCO)c(OC)c2)nc(-c2csc3c(F)cccc23)c1 [Compound 1257]
Ans. > 100 µM

Qu. Continue with COc1cc(C(=O)NCC(=O)c2ccc(OC)c(-c3ccc(F)c(Br)c3)n2)ccc1OCc1ncn[nH]1 [Compound 3903]
Ans. > 100 µM

Qu. Another molecule to check: CNCc1ccc(C(=O)NCC(=O)N/N=C(\CCOC)c2csc3c(F)cccc23)cc1OC [Compound 400-24]
Ans. > 100 µM

Qu. Note, next up: COCCOc1ccc(C(=O)NCC(=O)c2ccc(OC)c(-c3ccc(F)c(Cl)c3)n2)cc1 [Compound 1311]
Ans. > 100 µM

Qu. What do you get for COc1ccc(C(=O)CNC(=O)c2ccc(OCCO)cc2)nc1-c1ccc(F)c(Cl)c1 [Compound 1308] ?
Ans. > 100 µM

Qu. Queued: COc1ccc(C(=O)NCC(=O)c2ccc(OC)c(-c3ccc(OC(F)(F)F)cc3)n2)cc1OC [Compound 1532]
Ans. 10 to 100 µM

Qu. Follow-up entry: CCCC/C(=N\NC(=O)CNC(=O)c1ccc(OC)c(OCC)c1)c1csc2ccccc12 [Compound 246A]
Ans. 10 to 100 µM

Qu. Another molecule: COc1ccc(C(=O)NCC(=O)c2ccc(N(C)C)c(-c3csc4c(F)cccc34)n2)cc1OC [Compound 2101]
Ans. > 100 µM

Qu. Then COc1ccc(C(=O)NCC(=O)N/N=C(\C)c2csc3ccc(Br)cc23)cc1OC [Compound 432] ?
Ans. 10 to 100 µM

Qu. Now try COc1ccc(C(=O)CCC(=O)c2cccc(-c3csc4c(F)cccc34)n2)cc1OC [Compound 1339] .
Ans. 10 to 100 µM

Qu. Try this molecule next: COc1cc(C(=O)NCC(=O)c2ccc(OC)c(-c3ccc(F)cc3)n2)ccc1OCCO [Compound 1608]
Ans. 10 to 100 µM

Qu. Param item: CCOc1ccc(C(=O)NCC(=O)N/N=C/c2c[nH]c3c(F)cccc23)cc1OC [Compound 400-27]
Ans. > 100 µM
